# procedureSummary: Oral bioavailability in rat at 10 mg/kg by LC/MS/MS analysis
# Type: ADME, organism-based
# conditions: in vivo
reportedMetric: bioavailability

Query: Param item = COc1ccc2c(c1)C(=O)N(C[C@@]1(c3cc4ncccc4o3)NC(=O)NC1=O)C2.[Na+] ; retrieve measured bioavailability.
Reply: 35%

----------
AUC overview
# System: Rattus norvegicus
# procedureSummary: AUC in rat assessed as (S)-5-(furo[3,2-b]pyridin-2-yl)-5-((6-methoxy-1-oxoisoindolin-2-yl)methyl)imidazolidine-2,4-dione level at 10 mg/kg, po by HPLC/MS analysis
# Assay type: ADME, organism-based
# conditions: in vivo
Give the value in µM·h but do not write µM·h after it.

Below, each entry is followed by its recorded AUC result.
{"smilesRepr": "COc1ccc2c(c1F)C(=O)N(C[C@@]1(c3cc4nc(N)ccc4o3)NC(=O)N(COC(=O)C(C)(C)C)C1=O)C2", "unitName": "µM·h", "AUC": 0.4}
{"smilesRepr": "CCN1CCN(c2ccc3oc([C@]4(CN5Cc6ccc(OC)c(F)c6C5=O)NC(=O)N(COC(=O)C(C)(C)C)C4=O)cc3n2)CC1", "unitName": "µM·h", "AUC": 20}
{"smilesRepr": "COc1ccc2c(c1)C(=O)N(C[C@@]1(c3cc4nc(N5CCCNC5=O)ccc4o3)NC(=O)N(COC(=O)C(C)(C)C)C1=O)C2", "unitName": "µM·h", "AUC": 0.2}

Query: # lookup: AUC of COc1ccc2c(c1F)C(=O)N(C[C@@]1(c3cc4nc(N5CCNC(=O)C5)ccc4o3)NC(=O)N(COC(=O)C(C)(C)C)C1=O)C2
Reply: 0.6
